experimental_system: VEGF
Sequence (P15692 whole entry): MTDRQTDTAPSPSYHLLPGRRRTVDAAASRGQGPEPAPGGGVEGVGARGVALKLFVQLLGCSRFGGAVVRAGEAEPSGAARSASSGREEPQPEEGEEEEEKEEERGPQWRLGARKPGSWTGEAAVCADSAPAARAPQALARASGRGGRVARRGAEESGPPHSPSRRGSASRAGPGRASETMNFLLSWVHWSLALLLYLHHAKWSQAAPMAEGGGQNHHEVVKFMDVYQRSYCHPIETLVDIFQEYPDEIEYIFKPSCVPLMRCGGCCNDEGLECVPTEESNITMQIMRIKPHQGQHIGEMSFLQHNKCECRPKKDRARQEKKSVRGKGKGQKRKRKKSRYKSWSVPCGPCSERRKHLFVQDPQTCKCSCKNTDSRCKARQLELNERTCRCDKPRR
method_description: cell-based or functional assay
observable: HUVEC proliferation, IC50 (nM)
Unit nM implied. Number only.

Solved entries:
VEGFBII022 (VHH, not shown: small tags and cut ends) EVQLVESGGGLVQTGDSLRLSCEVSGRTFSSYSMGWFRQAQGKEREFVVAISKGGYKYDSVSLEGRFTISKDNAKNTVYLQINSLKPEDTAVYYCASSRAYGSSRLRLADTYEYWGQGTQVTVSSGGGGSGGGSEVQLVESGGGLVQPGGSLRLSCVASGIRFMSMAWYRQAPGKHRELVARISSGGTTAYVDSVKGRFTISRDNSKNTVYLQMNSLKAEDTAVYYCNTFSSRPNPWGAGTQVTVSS
0.34
VEGFBII023 (VHH, not shown: small tags and cut ends) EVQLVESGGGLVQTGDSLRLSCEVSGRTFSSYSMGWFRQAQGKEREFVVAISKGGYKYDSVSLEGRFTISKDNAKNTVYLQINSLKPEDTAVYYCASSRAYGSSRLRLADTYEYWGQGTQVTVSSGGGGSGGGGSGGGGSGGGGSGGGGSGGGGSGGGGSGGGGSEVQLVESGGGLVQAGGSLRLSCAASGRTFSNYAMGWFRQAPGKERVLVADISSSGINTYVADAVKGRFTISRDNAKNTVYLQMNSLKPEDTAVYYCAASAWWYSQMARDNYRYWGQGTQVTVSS
0.52
VEGFBII021 (VHH, not shown: small tags and cut ends) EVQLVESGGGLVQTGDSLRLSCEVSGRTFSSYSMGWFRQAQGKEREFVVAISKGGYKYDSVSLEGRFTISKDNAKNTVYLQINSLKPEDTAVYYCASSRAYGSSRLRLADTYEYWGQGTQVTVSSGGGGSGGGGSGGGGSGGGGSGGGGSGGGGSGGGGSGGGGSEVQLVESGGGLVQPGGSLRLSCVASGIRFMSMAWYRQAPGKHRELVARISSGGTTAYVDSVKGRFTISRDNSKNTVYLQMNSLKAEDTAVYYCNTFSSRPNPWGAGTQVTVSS
0.4
VEGFBII010 (VHH, not shown: small tags and cut ends) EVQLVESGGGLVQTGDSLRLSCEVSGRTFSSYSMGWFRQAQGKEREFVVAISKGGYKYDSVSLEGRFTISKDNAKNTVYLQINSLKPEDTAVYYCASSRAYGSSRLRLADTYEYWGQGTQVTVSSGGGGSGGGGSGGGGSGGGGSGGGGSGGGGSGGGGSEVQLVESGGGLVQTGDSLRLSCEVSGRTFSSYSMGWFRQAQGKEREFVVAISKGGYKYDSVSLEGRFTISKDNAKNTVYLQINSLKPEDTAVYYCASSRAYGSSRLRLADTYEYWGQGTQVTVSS
0.22
VEGFBII024 (VHH, not shown: small tags and cut ends) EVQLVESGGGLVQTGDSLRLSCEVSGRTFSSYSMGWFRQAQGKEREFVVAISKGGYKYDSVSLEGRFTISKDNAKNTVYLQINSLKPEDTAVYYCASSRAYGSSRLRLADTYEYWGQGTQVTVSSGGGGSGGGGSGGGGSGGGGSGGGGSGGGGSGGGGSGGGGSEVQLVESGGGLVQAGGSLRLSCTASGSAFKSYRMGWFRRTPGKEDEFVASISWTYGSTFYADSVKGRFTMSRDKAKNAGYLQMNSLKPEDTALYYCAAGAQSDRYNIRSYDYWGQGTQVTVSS
0.38

Then there is this binder:
What measured HUVEC proliferation, IC50 goes with VEGFBII025 (VHH, not shown: small tags and cut ends) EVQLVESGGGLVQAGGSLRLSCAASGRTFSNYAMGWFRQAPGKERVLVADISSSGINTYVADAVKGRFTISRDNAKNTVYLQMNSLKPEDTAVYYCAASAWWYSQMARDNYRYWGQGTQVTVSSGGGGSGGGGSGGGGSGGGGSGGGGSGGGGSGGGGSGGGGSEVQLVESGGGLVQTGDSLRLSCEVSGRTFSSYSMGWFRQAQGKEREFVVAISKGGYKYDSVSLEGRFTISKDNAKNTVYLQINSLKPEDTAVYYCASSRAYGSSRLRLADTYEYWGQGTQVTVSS ?
0.41

Every entry's value here was drawn from patent US20200308267A1.
